Record form. Attribute: pEC50. Fill in for each entry.
Target: Cannabinoid receptor 1 (Homo sapiens, UniProt P21554)
Sequence (P21554 whole entry): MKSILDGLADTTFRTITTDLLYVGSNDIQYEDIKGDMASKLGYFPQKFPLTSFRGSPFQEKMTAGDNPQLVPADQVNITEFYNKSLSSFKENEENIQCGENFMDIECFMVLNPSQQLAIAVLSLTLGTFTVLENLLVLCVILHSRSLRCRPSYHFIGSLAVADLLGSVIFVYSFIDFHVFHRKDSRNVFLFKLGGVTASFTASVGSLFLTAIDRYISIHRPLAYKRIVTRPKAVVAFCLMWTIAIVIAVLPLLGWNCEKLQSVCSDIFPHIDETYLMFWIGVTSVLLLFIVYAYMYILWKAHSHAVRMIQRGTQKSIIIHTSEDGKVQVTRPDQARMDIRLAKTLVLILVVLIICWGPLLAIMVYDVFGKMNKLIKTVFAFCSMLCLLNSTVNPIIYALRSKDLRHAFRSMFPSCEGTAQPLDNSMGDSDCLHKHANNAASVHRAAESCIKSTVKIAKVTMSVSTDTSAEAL
Test: Agonist activity at human CB1 receptor expressed in CHO cells assessed as [35S]-GTPgammaS binding preincubated for 25 mins measured after 30 mins by scintillation proximity assay
Numbers only, as −log10 of the molar value.

| cpd smiles | pEC50 |
| --- | --- |
| Cc1nc(N2CCN(C)CC2)c2cc(-c3ccccc3)sc2n1 | 5.23 |

We next turn to a different compound, shown below.
Find the recorded pEC50 belonging to CCN1CCN(c2nc(C)nc3sc(-c4ccccc4)cc23)CC1 and report it.
5.59

* * *

Record form. Attribute: logP. Fill in for each entry.
Test: Lipophilicity, log P of the compound
Assay type: physicochemical
Conditions: octanol/water
Answers are plain numbers.

| cpd smiles | logP |
| --- | --- |
| CCN1CCN(c2nc(C)nc3c2nc(-c2ccccc2Cl)n3C)CC1 | 3.1 |

We next turn to a different molecule, shown below.
Find the recorded logP belonging to CCN1CCN(c2nc(C)nc3sc(-c4ccccc4)cc23)CC1 and report it.
3.7

* * *

Record form. Attribute: metabolised at 0.5 h, 4 µM. Fill in for each entry.
Experiment: Drug metabolism in dog liver microsomes at 4 uM after 30 mins by LC-ESI/MS analysis
Type: ADME, Canis lupus familiaris, Microsome
Conditions: read-out: Drug metabolism
Give bare numbers, in %.

Reference set (4 entries):
| cpd smiles | unit of measure | metabolised at 0.5 h, 4 µM |
| --- | --- | --- |
| Cc1nc(N2CCN(C)CC2)c2cc(-c3ccccc3)sc2n1 | % | 97 |
| CC(=O)N1CCN(c2nc(C)nc3sc(-c4ccccc4)cc23)CC1 | % | 62 |
| CCN1CCN(c2nc(C)nc3sc(-c4ccccc4)cc23)CC1 | % | 97 |
| COC(=O)NCCn1c(-c2ccccc2Cl)nc2c(N3CCN(C)CC3)nc(C)nc21 | % | 62 |

We next turn to a different compound, shown below.
Find the recorded metabolised at 0.5 h, 4 µM belonging to Cc1nc(N2CCC(C)CC2)c2cc(-c3ccccc3)sc2n1 and report it.
75

* * *

Species on record: Homo sapiens
Assay: Selectivity ratio of EC50 for human CB1 receptor to EC50 for human CB2 receptor
Record form. Attribute: Ratio EC50. Fill in for each entry.
Give bare numbers.

| cpd smiles | observed measurement |
| --- | --- |
| CCN1CCN(c2nc(C)nc3sc(-c4ccccc4)cc23)CC1 | 104 |

We next turn to a different compound, shown below.
Find the recorded Ratio EC50 belonging to Cc1nc(N2CCN(C)CC2)c2cc(-c3ccccc3)sc2n1 and report it.
133

* * *

Assay: Binding affinity to 5HT1
Set-up: species or system Homo sapiens
observable: pKi
Numbers only, as −log10 of the molar value.

Find the recorded pKi belonging to CCN1CCN(c2nc(C)nc3sc(-c4ccccc4)cc23)CC1 and report it.
6.00

* * *

Assay: Dissociation constant, pKa of the compound
Assay type: physicochemical
observable: pKa
Give bare numbers.

Find the recorded pKa belonging to CCN1CCN(c2nc(C)nc3sc(-c4ccccc4)cc23)CC1 and report it.
7.5

* * *

Assay: Ratio of drug uptake in brain to plasma of Sprague-Dawley rat
Type: ADME
Conditions: read-out: BPR
observable: Kp
One number for each entry.

Find the recorded Kp belonging to CCN1CCN(c2nc(C)nc3c2nc(-c2ccccc2Cl)n3C)CC1 and report it.
1

* * *

Biological target: Cannabinoid receptor 2 (Homo sapiens, UniProt P34972)
Sequence (P34972 whole entry): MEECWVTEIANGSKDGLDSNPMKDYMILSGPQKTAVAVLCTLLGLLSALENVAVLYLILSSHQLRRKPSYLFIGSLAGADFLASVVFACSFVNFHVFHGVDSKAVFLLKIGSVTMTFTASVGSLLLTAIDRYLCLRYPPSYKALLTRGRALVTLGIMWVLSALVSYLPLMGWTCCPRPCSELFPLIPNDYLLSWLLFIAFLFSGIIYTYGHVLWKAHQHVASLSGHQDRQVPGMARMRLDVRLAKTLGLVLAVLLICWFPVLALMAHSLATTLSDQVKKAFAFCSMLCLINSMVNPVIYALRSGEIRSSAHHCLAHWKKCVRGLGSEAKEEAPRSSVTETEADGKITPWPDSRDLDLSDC
Assay: Agonist activity at human CB2 receptor expressed in CHO cells assessed as [35S]-GTPgammaS binding preincubated for 25 mins measured after 30 mins by scintillation proximity assay
observable: EC50
Your reply should be a number followed by the unit it is expressed in.

Reference set (4 entries):
| cpd smiles | observed measurement |
| --- | --- |
| CC(=O)N1CCN(c2nc(C)nc3sc(-c4ccccc4)cc23)CC1 | 184 nM |
| COC(=O)NCCn1c(-c2ccccc2Cl)nc2c(N3CCN(C)CC3)nc(C)nc21 | 47.5 nM |
| CCN1CCN(c2nc(C)nc3sc(-c4ccccc4)cc23)CC1 | 24.8 nM |
| Cc1nc(N2CCN(C)CC2)c2cc(-c3ccccc3)sc2n1 | 44.4 nM |

We next turn to a different molecule, shown below.
Find the recorded EC50 belonging to Cc1nc(N2CCC(C)CC2)c2cc(-c3ccccc3)sc2n1 and report it.
199 nM

* * *

Experiment: Drug metabolism in rat liver microsomes at 4 uM after 30 mins by LC-ESI/MS analysis
Type: ADME, Microsome
Conditions: read-out: Drug metabolism
observable: metabolised at 0.5 h, 4 µM

Reference set (3 entries):
| cpd smiles | metabolised at 0.5 h, 4 µM |
| --- | --- |
| Cc1nc(N2CCN(C)CC2)c2cc(-c3ccccc3)sc2n1 | 95% |
| CCN1CCN(c2nc(C)nc3sc(-c4ccccc4)cc23)CC1 | 94% |
| Cc1nc(N2CCC(C)CC2)c2cc(-c3ccccc3)sc2n1 | 93% |

Hi! Can you tell me metabolised at 0.5 h, 4 µM for each of these compounds?
1. COC(=O)NCCn1c(-c2ccccc2Cl)nc2c(N3CCN(C)CC3)nc(C)nc21
2. CC(=O)N1CCN(c2nc(C)nc3sc(-c4ccccc4)cc23)CC1

1. 25%
2. 28%

* * *

Assay: Aqueous solubility of the compound at pH 7
Type: physicochemical
Conditions: buffer
observable: solubility

Find the recorded solubility belonging to CCN1CCN(c2nc(C)nc3c2nc(-c2ccccc2Cl)n3C)CC1 and report it.
> 2000 µg/mL

* * *

Experiment: Solubility of the compound in simulated gastrointestinal fluid at pH 6.8
Type: physicochemical
observable: solubility (µM)
Numbers only, in µM.

Find the recorded solubility belonging to CC(=O)N1CCN(c2nc(C)nc3sc(-c4ccccc4)cc23)CC1 and report it.
41

* * *

Biological target: Cannabinoid receptor 2 (Homo sapiens, UniProt P34972)
Test: Agonist activity at human CB2 receptor expressed in CHO cells assessed as [35S]-GTPgammaS binding preincubated for 25 mins measured after 30 mins by scintillation proximity assay relative to control
Type: functional, cell-based
Outcome label depends on Efficacy relative to 90%: at/above gives rule met, below gives rule not met.

| cpd smiles | class assignment |
| --- | --- |
| Cc1nc(N2CCC(C)CC2)c2cc(-c3ccccc3)sc2n1 | rule not met |
| COC(=O)NCCn1c(-c2ccccc2Cl)nc2c(N3CCN(C)CC3)nc(C)nc21 | rule not met |
| CC(=O)N1CCN(c2nc(C)nc3sc(-c4ccccc4)cc23)CC1 | rule met |

Okay, now this compound:
Quick check: does CCN1CCN(c2nc(C)nc3sc(-c4ccccc4)cc23)CC1 have Efficacy greater than or equal to 90%?
rule not met

* * *

Assay: Drug metabolism in human liver microsomes at 4 uM after 30 mins by LC-ESI/MS analysis
Format: ADME, Microsome
Conditions: read-out: Drug metabolism
Outcome label depends on metabolised at 0.5 h, 4 µM relative to 60%: at/above gives true (1), below gives false (0).

Take a look at these entries with their results.
| cpd smiles | class assignment |
| --- | --- |
| CC(=O)N1CCN(c2nc(C)nc3sc(-c4ccccc4)cc23)CC1 | false (0) |
| Cc1nc(N2CCN(C)CC2)c2cc(-c3ccccc3)sc2n1 | false (0) |
| CCN1CCN(c2nc(C)nc3sc(-c4ccccc4)cc23)CC1 | true (1) |
| COC(=O)NCCn1c(-c2ccccc2Cl)nc2c(N3CCN(C)CC3)nc(C)nc21 | false (0) |

Quick check: does Cc1nc(N2CCC(C)CC2)c2cc(-c3ccccc3)sc2n1 have metabolised at 0.5 h, 4 µM greater than or equal to 60%?
false (0)

* * *

Target: Cannabinoid receptor 2 (Rattus norvegicus)
Sequence (Q9QZN9 whole entry): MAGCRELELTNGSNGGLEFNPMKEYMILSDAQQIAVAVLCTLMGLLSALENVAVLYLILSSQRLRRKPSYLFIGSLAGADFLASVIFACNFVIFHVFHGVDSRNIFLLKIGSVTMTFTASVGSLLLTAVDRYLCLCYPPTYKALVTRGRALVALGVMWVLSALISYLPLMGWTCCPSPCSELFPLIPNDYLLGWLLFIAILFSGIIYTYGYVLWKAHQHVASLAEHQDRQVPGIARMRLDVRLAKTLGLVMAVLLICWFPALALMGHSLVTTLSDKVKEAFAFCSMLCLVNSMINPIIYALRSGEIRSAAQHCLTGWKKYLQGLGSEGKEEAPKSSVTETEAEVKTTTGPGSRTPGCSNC
observable: Ki
Your reply should be a number followed by the unit it is expressed in.

Find the recorded Ki belonging to CCN1CCN(c2nc(C)nc3sc(-c4ccccc4)cc23)CC1 and report it.
16 nM

* * *

Molecular target: Cannabinoid receptor 1 (Homo sapiens)
Test: Agonist activity at human CB1 receptor expressed in CHO cells assessed as [35S]-GTPgammaS binding preincubated for 25 mins measured after 30 mins by scintillation proximity assay
pEC50: −log10 of the molar value.
observable: pEC50

Reference set (2 entries):
| cpd smiles | pEC50 |
| --- | --- |
| Cc1nc(N2CCC(C)CC2)c2cc(-c3ccccc3)sc2n1 | < 4.00 |
| COC(=O)NCCn1c(-c2ccccc2Cl)nc2c(N3CCN(C)CC3)nc(C)nc21 | < 4.00 |

We next turn to a different molecule, shown below.
Checklist item: pEC50 tested on Cannabinoid receptor 1 (Homo sapiens), entry CC(=O)N1CCN(c2nc(C)nc3sc(-c4ccccc4)cc23)CC1 , value?
< 4.00

* * *

Species on record: Homo sapiens
Experiment: Selectivity ratio of EC50 for human CB1 receptor to EC50 for human CB2 receptor
observable: Ratio EC50

Reference set (2 entries):
| cpd smiles | Ratio EC50 |
| --- | --- |
| Cc1nc(N2CCC(C)CC2)c2cc(-c3ccccc3)sc2n1 | > 502 |
| COC(=O)NCCn1c(-c2ccccc2Cl)nc2c(N3CCN(C)CC3)nc(C)nc21 | > 2110 |

We next turn to a different compound, shown below.
Find the recorded Ratio EC50 belonging to CC(=O)N1CCN(c2nc(C)nc3sc(-c4ccccc4)cc23)CC1 and report it.
> 543
